# MEASUREMENT_NOTES: differential killing of epithelial or mesenchymal cells, primary screen, imaging, PC-3E GFP, TEM4-18 mCherry, co-culture (AID 1345086);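 also: cells exposed to compound for 72 h before imaging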
# CONDITIONS_USED: imaging cell counts, measured here: epithelial PC-3E GFP cell survival, at 1 µM
Entries and their measured normalised cell number follow.
Number, no unit, nothing else.

Check out these entries, answers already filled in.
1) COC1=C(OC)C(=O)C(C/C=C(\C)CC/C=C(\C)CC/C=C(\C)CC/C=C(/C)CC/C=C(\C)CC/C=C(\C)CC/C=C(\C)CC/C=C(\C)CC/C=C(\C)CCC=C(C)C)=C(C)C1=O ... 0.97
2) COC(=O)C1O[C@H](Sc2ccccc2)[C@@H](OC(=O)c2ccccc2)[C@@H](OC(=O)c2ccccc2)C1O (stereo not given in full) ... 1.05
3) O=C1CC(c2ccc(O)cc2)Oc2ccccc21 (stereo not given) ... 1.01
4) Clc1ccc2ncc(Cl)nc2c1 ... 0.91
5) CC(=O)O[C@@H]1CC2C(C)(C)C(=O)C3OC3[C@]2(C)C2CC[C@@]3(C)[C@H](c4ccoc4)OC(=O)C4OC43[C@@]21C (stereo not given in full) ... 1.01

Exercise: # normalised cell number lookup, item CC(=O)O[C@]1(C(C)=O)CCC2C3C=C(Cl)C4=CC(=O)[C@@H]5C[C@@H]5[C@]4(C)C3CC[C@@]21C (stereo not given in full)
Solution: 1.12

Exercise: Item CC(CC(=O)N1C(=S)SC[C@@H]1c1ccccc1)N1C(=S)SC[C@@H]1c1ccccc1 (stereo not given in full) has what recorded normalised cell number?
Solution: 1.18

Exercise: Which normalised cell number reading was recorded for the compound NC(N)=NCC1COC2(CCCCC2)O1 (stereo not given) ?
Solution: 1.11

Exercise: So what does the record say about normalised cell number for CC(C)=CCC/C(C)=C/COc1ccc2ccc(=O)oc2c1 ?
Solution: 0.93

Exercise: Look up normalised cell number for this compound: CCCC(=O)Nc1ncnc2c1ncn2C1O[C@@H]2COP(=O)(O)O[C@H]2[C@H]1OC(=O)CCC (stereo not given in full)
Solution: 0.93

====

Reported luciferase signal values are given for each entry in this list.
# SYSTEM_UNDER_TEST: Mitogen-activated protein kinase 7 (Homo sapiens)
# MEASUREMENT_NOTES: ERK5 transactivation activators in reporter cells, primary screen, cell-based, HTS (AID 1508626);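 also: luciferase driven by Gal4-ERK5 fusion binding five Gal4 sites before minimal TATA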
# CONDITIONS_USED: HeLa Gal4-ERK5 transactivation, 18 h, at 5 µM, stronger effect = higher value
The source made the active and inactive calls.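 Rule for the calls: active = luciferase signal above three times the same-plate solvent-only control wells; inactive = the rest.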

Exercise: Which luciferase signal reading was recorded for the compound COC1=C(OC)C(=O)C(C/C=C(\C)CC/C=C(\C)CC/C=C(\C)CC/C=C(/C)CC/C=C(\C)CC/C=C(\C)CC/C=C(\C)CC/C=C(\C)CC/C=C(\C)CCC=C(C)C)=C(C)C1=O ?
Solution: 80 AU (inactive)

====

Readings of growth inhibition for the listed compounds
# MEASUREMENT_NOTES: antimalarial activity against Dd2 strain (AID 2302);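 also: 0% = DMSO untreated growth and 100% = chloroquine plus artemisinin killed control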
# CONDITIONS_USED: P. falciparum Dd2 in RBCs, LDH growth readout, 72 h; at 2 µM; stronger effect = higher value
Answer format: numeric, % implied, no suffix.

Study these solved cases before continuing.
1. CCS(=O)(=O)c1ccc(OC)c(Nc2nccc(-c3c(-c4cccc(NC(=O)c5c(F)cccc5F)c4)nn4ncccc34)n2)c1 ... 88
2. Cn1cccc1C(=O)Nc1cccc(-c2nn3ccccc3c2-c2ccnc(Nc3ccc4c(c3)OCCO4)n2)c1 ... 27
3. Cc1nc2nc(N)nc(N)c2c(C)c1Cc1ccc([N+](=O)[O-])cc1 ... 11
4. N=C(N)c1ccc(Nc2nc(Nc3ccc(-c4ccccc4)cc3)ncc2[N+](=O)[O-])cc1 ... 35
5. O=C(/C=C/c1ccc(Cl)c(Cl)c1)NCCCCCN1CCC(C(=O)Nc2ccc(Cl)cc2)CC1 ... -1

Exercise: Which growth inhibition value belongs to Cc1sc(NC(=O)c2ccc([N+](=O)[O-])cc2Cl)c(C(N)=O)c1C ?
Solution: 2

Exercise: For CCOC(=O)c1c(-c2ccccc2)c(C(=O)OCC)n2ccccc12 , what is its reported growth inhibition?
Solution: 70

Exercise: Report growth inhibition for CCn1c(-c2nonc2N)nc2c(-c3cccc(NC(=O)Nc4cccc(C(F)(F)F)c4)c3)ncc(OCCCN)c21 please.
Solution: 70

Exercise: Suppose we examine the compound NS(=O)(=O)c1cccc(Nc2nccc(-c3c(-c4cccc(NC(=O)c5c(F)cccc5F)c4)nn4ccccc34)n2)c1 ; what growth inhibition value has been reported?
Solution: 97

Exercise: Recorded growth inhibition of COc1ccc2nccc([C@@H](O)CN3CCC(NCc4ccc5nsnc5c4)CC3)c2c1 , please.
Solution: 64

Exercise: State the recorded growth inhibition for this entry: CCOC(=O)c1nc2ccc(SC3CCCCC3)cn2c1Br
Solution: 3

Exercise: What measured growth inhibition goes with CN(C)CCN(C)Cc1ccc(-c2ccc3c(Nc4ccc(Cl)cc4F)ccnc3c2)o1 ?
Solution: 76

Exercise: Consider the compound shown here: Nc1ccncc1C(=O)NCCCCN1CCN(c2nsc3ccccc23)CC1 What is its recorded growth inhibition?
Solution: 9

Exercise: Please report the recorded growth inhibition for CN(C)C(=S)N=Nc1c(O)[nH]c2ccccc12 .
Solution: 96

====

# MEASUREMENT_NOTES: ovarian cancer cell viability with rucaparib, profiling panel, oncology-focused library, rucaparib conditional (AID 1508598)
# CONDITIONS_USED: patient-derived ovarian cancer cells, CellTiter-Glo viability, 144 h; at 0.00488 µM; OCI-P5x cells; with rucaparib 20 µM; stronger effect = lower value; 100% = cells with rucaparib alone
As shown below, each of these compounds has a reported viability value.
Numbers only here, please. The scale is %.

1) N#Cc1c(O)c2c(-c3ccc(-c4ccccc4O)cc3)csc2[nH]c1=O ... 116
2) O=C1CN2Cc3c(ccc(Cl)c3Cl)N=C2N1 ... 106
3) O=c1cc(-c2cccc3c2Sc2ccccc2S3)oc(N2CCOCC2)c1 ... 100

Exercise: Consider the compound O=c1[nH]c(-c2ccc(C(F)(F)F)cc2)nc2c1CSCC2 and give its measured viability.
Solution: 110

Exercise: Item Cn1cc(C2=C(c3ccc(Cl)cc3Cl)C(=O)NC2=O)c2ccccc21 has what recorded viability?
Solution: 105

Exercise: Using the record for O=C(O)Cc1cccc(OCCCN(Cc2cccc(C(F)(F)F)c2Cl)CC(c2ccccc2)c2ccccc2)c1 , report its viability.
Solution: 106

====

# System: R275C/beta2Delta
# MEASUREMENT_NOTES: modulators of BK channel variants, profiling panel, selectivity assay, cell-based, U2OS BacMam, thallium flux, beta subunits (AID 1259406);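 also: initial slope of Thallos dye fluorescence rise after thallium is added; log ratio against the mean of 0.3% DMSO vehicle wells on the same plate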
# CONDITIONS_USED: at 30 µM
Rule: measured log fold change Tl+ flux below 0.01 gets yes (1); anything equal to or greater than 0.01 gets no (0).

Solved entries (count: 3):
1. O=S(=O)(Nc1cc(Cl)c(-n2cccc2)cc1Oc1ccc(Cl)cc1)c1ccc(Cl)cc1 ... yes (1)
2. N#CC1=C(Nc2ccccc2Cl)SC(c2ccncc2)NC1=O (configuration not stated) ... no (0)
3. N#CC(NCc1ccccc1Cl)=C(C#N)NCc1c(F)cccc1Cl ... yes (1)

Exercise: Consider the molecule O=C(Nc1ccc(F)cc1)N1CCN(Cc2ccccc2)CC1 . Is its log fold change Tl+ flux strictly less than 0.01?
Solution: yes (1)

Exercise: Please indicate whether the reported log fold change Tl+ flux of O=S(=O)(c1ccc(N2CCOCC2)nc1)N1CCN(c2c(Cl)cncc2Cl)CC1 is strictly below 0.01.
Solution: no (0)

Exercise: In plain terms, does CCOC(=O)c1c[nH]n2c(=O)c3c(nc12)CCC3 come in under 0.01 for log fold change Tl+ flux?
Solution: yes (1)

Exercise: Hello, I'm reviewing records and need to know if log fold change Tl+ flux of O=S(=O)(Cc1nc(C=Cc2cc(C(F)(F)F)cc(C(F)(F)F)c2)no1)c1ccc(Cl)cc1 is below 0.01. Could you check?
Solution: no (0)

Exercise: Criterion: log fold change Tl+ flux strictly below 0.01. Is it met by O=C(c1ccc(-c2cccs2)s1)c1ccc(F)cc1F ?
Solution: no (0)

Exercise: Below 0.01 on log fold change Tl+ flux? Entry Cc1onc(-c2ccccc2)c1N1C(=O)CCN(C(C)C)C1=O
Solution: yes (1)

Exercise: Does this molecule meet the criterion log fold change Tl+ flux < 0.01? CO[C@H]1O[C@@H]2O[C@@]3(C)CC[C@H]4[C@H](C)CC[C@@H]([C@H]1C)[C@@]24OO3
Solution: yes (1)

Exercise: Decide: log fold change Tl+ flux of COc1cc(CCC(C)NC(=O)c2ccc(C)cc2)ccc1OC(=O)c1ccc(C)cc1 (configuration not stated) strictly below 0.01?
Solution: yes (1)

====

# MEASUREMENT_NOTES: survival rescue of mitochondrial mutant cells in low glucose, primary screen, MELAS cybrids, Rieske KO mouse fibroblasts, CellTiter-Glo (AID 1508586);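 also: z relative to plate mean and SD of compound and empty wells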
# CONDITIONS_USED: Rieske KO mouse fibroblast survival, CellTiter-Glo 72 h
Catalogue of compounds with associated z-score
Please give only the number in your answer, with no unit.

Consider the following illustrative entries.
1) CCC(=C(c1ccccc1)c1ccc(OCCN(C)C)cc1)c1ccccc1 ... 11.9
2) Cc1c(-c2cnccn2)ssc1=S ... -0.106
3) Nc1ccccc1S(N)(=O)=O ... -0.362
4) CCN(CC)CCCC(C)Nc1nc(C)cc(Nc2ccc3nc(C)cc(N)c3c2)n1 (configuration not stated) ... -2.27
5) C[N+](C)(CCOc1ccccc1)Cc1ccccc1 ... 0.271
6) Cc1c(C)c2c(c(C)c1O)CCC(C)(C(=O)O)O2 (configuration not stated) ... -0.0183
7) NC(=O)Nc1sc(-c2ccc(F)cc2)cc1C(N)=O ... 0.196
8) C=CCOC(Cn1ccnc1)c1ccc(Cl)cc1Cl (configuration not stated) ... -1.27

Exercise: Recorded z-score for O=C(NC(CO)C(O)c1ccc([N+](=O)[O-])cc1)C(Cl)Cl (configuration not stated) , please?
Solution: 0.499

Exercise: Return reported z-score; argument: O=c1cc(-c2cccc3c2Sc2ccccc2S3)oc(N2CCOCC2)c1
Solution: 1.02

Exercise: Which z-score value is on record for CCN(CC)CCOCCOC(=O)C(CC)(CC)c1ccccc1 ?
Solution: -0.272

Exercise: // lookup z-score for Oc1ccc(-c2nc(-c3ccc(F)cc3)c(-c3ccncc3)[nH]2)cc1
Solution: 0.329

Exercise: Could you tell me which z-score is on file for CC(C)C[C@H](NC(=O)[C@@H](O)[C@H](N)Cc1ccccc1)C(=O)O ?
Solution: 0.817

Exercise: z-score lookup needed for CCC(CO)NCCNC(CC)CO (configuration not stated) , thanks.
Solution: -0.177
